src = paper PMC7076710

System: COS-1 cells
PROCEDURE_DETAILS: MTT assay (cell viability)
Format: cell-based
TEST_CONTEXT: 30 µM; cell viability
PARAMETER_MEASURED: MTT.30µM
Numbers only.

Known results for molecules:
>>> df
                                   molecule  parameter_measured  result
0  CCN(CC)c1ccc(NC(=O)c2c(C)noc2-c2ccccc2)cc1 [Compound 65]            MTT.30µM   84.64
1  Cc1onc(-c2ccccc2)c1COc1ccc(C(=O)OCCC#N)cc1 [Compound 35a]            MTT.30µM   61.55
2  CC(=O)COC(=O)c1ccc(OCc2c(-c3ccccc3)noc2C)cc1 [Compound 35d]            MTT.30µM   61.12
3  CCN(CC)c1ccc(NC(=O)c2c(-c3ccncc3)noc2C)cc1 [Compound 39c]            MTT.30µM   90.91

Now turn to the next molecule.
Please look up its MTT.30µM: C=CCN(Cc1ccc(N(CC)CC)cc1)c1c(-c2ccccc2)noc1C [Compound 30b] 84.34

###

I'd be grateful if you could share measured activity at 10 µM for these entries.
EXPERIMENTAL_TARGET: GATA4–NKX2-5 transcriptional synergy (Mus musculus, UniProt P42582+Q08369)
Construct: expressed in transfected cells; host or cells: COS-1
Sequence (Q08369 whole entry): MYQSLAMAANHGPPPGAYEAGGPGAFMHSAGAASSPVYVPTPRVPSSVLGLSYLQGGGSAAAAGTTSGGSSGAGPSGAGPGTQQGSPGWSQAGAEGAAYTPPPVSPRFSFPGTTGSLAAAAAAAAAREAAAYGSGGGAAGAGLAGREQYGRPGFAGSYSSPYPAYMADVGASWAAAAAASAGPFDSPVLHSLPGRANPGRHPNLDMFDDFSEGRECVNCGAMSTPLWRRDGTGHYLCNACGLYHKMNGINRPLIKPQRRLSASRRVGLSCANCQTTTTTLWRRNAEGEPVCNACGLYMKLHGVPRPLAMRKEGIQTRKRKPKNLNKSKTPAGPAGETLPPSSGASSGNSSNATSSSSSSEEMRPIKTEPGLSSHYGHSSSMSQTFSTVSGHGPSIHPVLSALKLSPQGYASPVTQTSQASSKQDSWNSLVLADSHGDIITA
Sequence (P42582 whole entry): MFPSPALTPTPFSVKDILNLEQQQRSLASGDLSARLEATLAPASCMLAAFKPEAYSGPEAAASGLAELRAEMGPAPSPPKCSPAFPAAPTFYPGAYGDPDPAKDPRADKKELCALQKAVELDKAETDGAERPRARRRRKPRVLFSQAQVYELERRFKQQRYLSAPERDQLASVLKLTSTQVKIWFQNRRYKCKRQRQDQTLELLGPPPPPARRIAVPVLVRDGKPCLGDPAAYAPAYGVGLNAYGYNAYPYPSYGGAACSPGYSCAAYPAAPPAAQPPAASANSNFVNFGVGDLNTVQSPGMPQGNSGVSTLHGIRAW
PROCEDURE_DETAILS: GATA4–NKX2-5 transcriptional synergy luciferase reporter assay (3xNKE reporter, COS-1 cells)
Format: cell-based
TEST_CONTEXT: COS-1; compound 10 µM; luciferase reporter activity; spread in separate STDEV column
Answers are plain numbers, in %.

Known results for compounds:
In [3]: df
Out[3]:
                                   compound                       experimental_target  result
0  COc1ccc(NC(=O)c2c(-c3ccc(Br)s3)noc2C)cc1Cl  GATA4–NKX2-5 transcriptional synergy (Mus musculus, UniProt P42582+Q08369)    91.9
1  CCN(CC)c1ccc(NC(=O)c2c(-c3ccc(C)s3)noc2C)cc1 [Compound 39p]  GATA4–NKX2-5 transcriptional synergy (Mus musculus, UniProt P42582+Q08369)     102
2         Cc1onc(-c2ccc(Br)s2)c1C(=O)NC1CC1  GATA4–NKX2-5 transcriptional synergy (Mus musculus, UniProt P42582+Q08369)     105
3  CN(C)c1ccc(CNc2cc(-c3ccccc3)nn2-c2ccccc2)cc1  GATA4–NKX2-5 transcriptional synergy (Mus musculus, UniProt P42582+Q08369)    72.5
4  Cc1onc(-c2ccc(Br)s2)c1C(=O)Nc1ccc(C(C)C)cc1  GATA4–NKX2-5 transcriptional synergy (Mus musculus, UniProt P42582+Q08369)    97.2
5  CCN(CC)c1ccc(NC(=O)c2c(C)noc2-c2cc(-c3ccco3)on2)cc1  GATA4–NKX2-5 transcriptional synergy (Mus musculus, UniProt P42582+Q08369)     100
6  Cc1onc(-c2ccccc2)c1C(=O)Nc1ccc2c(c1)C(=O)CCC2  GATA4–NKX2-5 transcriptional synergy (Mus musculus, UniProt P42582+Q08369)    98.2
7  CCN(CC)c1ccc(NC(=O)c2c(C)noc2-c2cc(CCOc3ccccn3)on2)cc1  GATA4–NKX2-5 transcriptional synergy (Mus musculus, UniProt P42582+Q08369)     104

Fill in activity at 10 µM for each of the 2 compounds listed.
1. CCN(CC)c1ccc(NC(=O)c2ncoc2-c2ccco2)cc1 [Compound 47x]
2. CCC(C)NC(=O)c1cc(-c2ccco2)on1 (stereo not shown)

116
138

###

EXPERIMENTAL_TARGET: NKX2-5 transcriptional activity (Mus musculus)
Construct: expressed in transfected cells; host or cells: COS-1
PROCEDURE_DETAILS: NKX2-5 luciferase reporter assay (3xNKE reporter, COS-1 cells)
Format: cell-based
TEST_CONTEXT: COS-1; 3 µM; luciferase reporter activity relative to control; read-out: NKX.3µM
Decision: activity at 3 µM >= 70% yields YES, all other cases yield NO.

Please review the entries below; each comes with its answer.
In [3]: df
Out[3]:
                                   compound  class_assignment
0  CCC(=O)N(Cc1ccc(N(CC)CC)cc1)c1c(-c2ccccc2)noc1C               YES
1  CCN(CC)c1ccc(NC(=O)c2cnc(SC)n2-c2ccc(F)cc2)cc1 [Compound 47z]               YES
2  CCN(CC)c1ccc(NC(=O)c2c(-c3ccsc3)noc2C)cc1 [Compound 39m]               YES
3  CCN(CC)c1ccc(NC(=O)c2c(C)noc2-c2ccccc2)cc1                NO
4  Cc1onc(-c2ccccc2)c1C(=O)Nc1ccc2oc(-c3ccccc3)cc(=O)c2c1               YES

Is reported activity at 3 µM greater than or equal to 70% here: CCN(CC)c1ccc(NC(=O)c2csc([N+](=O)[O-])c2)cc1 [Compound 47u] NO

Is reported activity at 3 µM greater than or equal to 70% here: CCCn1nnc(-c2ccccc2)c1C(=O)Nc1ccc(N(CC)CC)cc1 YES

Is reported activity at 3 µM greater than or equal to 70% here: CCN(CC)c1ccc(NC(=O)c2cnsc2)cc1 [Compound 47s] NO

Is reported activity at 3 µM greater than or equal to 70% here: CCN(CC)c1ccc(NC(=O)c2ccnn2-c2ccccc2)cc1 YES

Is reported activity at 3 µM greater than or equal to 70% here: CCN(CC)c1ccc(CN(C(=O)C(F)(F)F)c2c(-c3ccccc3)noc2C)cc1 [Compound 30c] YES

Is reported activity at 3 µM greater than or equal to 70% here: CCN(CC)c1ccc(NC(=O)c2cc(C)oc2-c2ccccc2)cc1 NO

Is reported activity at 3 µM greater than or equal to 70% here: CC[N+](O)(CC)c1ccc(NC(=O)c2c(-c3ccccc3)noc2C)cc1 YES

Is reported activity at 3 µM greater than or equal to 70% here: CCN(CC)c1ccc(NCc2c[nH]nc2-c2cc(F)cc(F)c2)cc1 YES

###

I'd be grateful if you could share measured activity at 3 µM for these entries.
EXPERIMENTAL_TARGET: GATA4 transcriptional activity (Mus musculus, UniProt Q08369)
Construct: expressed in transfected cells; host or cells: COS-1
PROCEDURE_DETAILS: GATA4 luciferase reporter assay (tandem GATA-site reporter, COS-1 cells)
Type: cell-based
TEST_CONTEXT: COS-1; compound 3 µM; luciferase reporter activity; spread in separate STDEV column
Answers are plain numbers, in %.

Known results for compounds:
                                   compound  unit_abbrev  result
0  CCN(CC)c1ccc(NC(=O)c2c(-c3ccc(C)s3)noc2C)cc1 [Compound 39p]            %    85.9
1  Cc1onc(-c2ccccc2)c1C(=O)Nc1ccc(C(=O)OCCC#N)cc1            %    97.1
2  CN(C)c1ccc(CNc2cc(-c3ccccc3)nn2-c2ccccc2)cc1            %    96.8

Fill in activity at 3 µM for each of the 7 compounds listed.
1. CCN(CC)c1ccc(NC(=O)c2cc(C)sc2-c2cc(C)on2)cc1 [Compound 47l]
2. COc1ccc(-c2cc(NCc3ccc(N(C)C)cc3)n[nH]2)cc1
3. Cc1onc(-c2ccccc2)c1C(=O)Nc1nc(C(C)(C)C)cs1
4. Cc1onc(-c2ccccc2)c1C(=O)Nc1ccc(C(=O)OCCCCC#N)cc1 [Compound 10c]
5. CCN(CC)c1ccc(NC(=O)c2c(-c3cc(C)on3)noc2C)cc1 [Compound 39o]
6. Cc1onc(-c2ccccc2)c1C(=O)Nc1ccc(C(=O)OCCCC#N)cc1 [Compound 10b]
7. CCN(CC)c1ccc(NC(=O)c2cc(C)oc2-c2cc(C)on2)cc1 [Compound 47h]

119
74.4
109
109
89.2
103
134

###

I'd be grateful if you could share measured activity at 10 µM for these entries.
EXPERIMENTAL_TARGET: GATA4 transcriptional activity (Mus musculus, UniProt Q08369)
Construct: expressed in transfected cells; host or cells: COS-1
PROCEDURE_DETAILS: GATA4 luciferase reporter assay (tandem GATA-site reporter, COS-1 cells)
Format: cell-based
TEST_CONTEXT: COS-1; 10 µM, luciferase reporter activity, % of control
Kindly report the value followed by its unit.

In [3]: df
Out[3]:
                                chem_smiles  result
0  Cc1onc(-c2ccccc2)c1C(=O)Nc1ccc(-c2ccccc2)cc1    114%
1      Cc1onc(-c2ccccc2)c1COCc1ccc2ccccc2c1    110%
2  CN(C)c1ccc(/N=C/c2c[nH]nc2-c2ccc(F)cc2)cc1    122%
3     Cc1onc(-c2ccccc2)c1N=Cc1ccc(N(C)C)cc1   97.6%

So what activity at 10 µM did C#CC[N+](CC)(CC)c1ccc(NC(=O)c2c(-c3ccccc3)noc2C)cc1 get with GATA4 transcriptional activity (Mus musculus, UniProt Q08369)? 95.3%
